# Assay System: M1 muscarinic receptor (Homo sapiens, UniProt P11229)
# Construct: expressed in transfected cells; host or cells: CHO (M1-CHO)
# Procedure Details: Functional mobilization of intracellular calcium (FLIPR), M1-CHO cells
# Assay type: cell-based
# Condition Summary: 100% efficacy is the maximum response obtained with the Carbachol control
Quantity: Emax

CN(C)C(=O)N1CCC2(CCN(C3CC4CCC(C3)N4c3cnccn3)CC2)c2ccccc21 (centres unmarked) [compound 30] | 25 to 100%
CN(C)C(=O)N1CC2(CCN(C3CCN(c4ncns4)CC3)CC2)c2ccccc21 [compound 75] | 25 to 100%
CCc1nsc(N2CCC(N3CCC4(CCN(C(C)=O)c5ccccc54)CC3)CC2)n1 [compound 16] | 25 to 100%
C#CCOC(=O)N1CCC(N2CCC3(CCN(C(=O)N(C)C)c4ccccc43)CC2)CC1 [compound 4] | 25 to 100%
CC(=O)N1CCC2(CCN(C3CCNCC3)CC2)c2ccccc21 [compound 34] | < 25%
COC(=O)N1CC[C@@H](CN2CCC3(CC2)CN(C(=O)N(C)C)c2ccccc23)C1 [compound 54] | 25 to 100%
CCC#CCOC(=O)N1CC[C@@H](CN2CCC3(CC2)CN(C(=O)N(C)C)c2ccccc23)C1 [compound 99] | 25 to 100%
CN(C)C(=O)N1CCC2(CCN(C3CCN(c4cnccn4)CC3)CC2)c2ccccc21 [compound 8] | 25 to 100%
COCCOC(=O)N1CC[C@H](CN2CCC3(CC2)CN(C(=O)N(C)C)c2ccccc23)C1 [compound 64] | 25 to 100%
COC(=O)N1C2CCC1CC(N1CCC3(CCN(C(=O)N(C)C)c4ccccc43)CC1)C2 (centres unmarked) [compound 26] | 25 to 100%
COC(=O)N1CCC(N2CCC3(CC2)CN(C(=O)N(C)C)c2ccccc23)CC1 [compound 38] | 25 to 100%
CN(C)C(=O)N1CC2(CCN(C3CCN(c4nc5ccccc5s4)CC3)CC2)c2ccccc21 [compound 117] | < 25%
CN(C)C(=O)N1CC2(CCN(C3CCN(c4nncs4)CC3)CC2)c2ccccc21 [compound 89] | < 25%
CCc1nsc(N2C3CCC2CC(N2CCC4(CCN(C(=O)N(C)C)c5ccccc54)CC2)C3)n1 (centres unmarked) [Compound No. 32] | 25 to 100%
CCOC(=O)N1C2CCC1CC(N1CCC3(CCN(C(C)=O)c4ccccc43)CC1)C2 (centres unmarked) [compound 1] | 25 to 100%
CCC#CCOC(=O)N1CCC(N2CCC3(CCN(C(C)=O)c4ccccc43)CC2)CC1 [compound 14] | 25 to 100%
CN(C)C(=O)N1CCC2(CCN(C3CCN(C(=O)OCCC#N)CC3)CC2)c2ccccc21 [compound 19] | < 25%
CN(C)C(=O)N1CC2(CCN(C[C@@H]3CCN(C(=O)OCC(F)F)C3)CC2)c2ccccc21 [compound 57] | 25 to 100%
COC(=O)N1CCC(N2CCC3(CCN(C(=O)N(C)C)c4ccccc43)CC2)CC1 [compound 2] | 25 to 100%
Cc1cncc(N2CCC(N3CCC4(CC3)CN(C(=O)N(C)C)c3ccccc34)CC2)n1 [compound 79] | 25 to 100%
COC(=O)N1CC[C@H](CN2CCC3(CC2)CN(C(=O)N(C)C)c2ccccc23)C1 [compound 59] | 25 to 100%
CN(C)C(=O)N1CC2(CCN(C3CCC(c4ncns4)CC3)CC2)c2ccccc21 (centres unmarked) [compound 112] | < 25%
CCC#CCOC(=O)N1CC[C@H](CN2CCC3(CC2)CN(C(=O)N(C)C)c2ccccc23)C1 [compound 102] | 25 to 100%

###

# Assay System: M1 muscarinic receptor (Homo sapiens)
# Construct: expressed in transfected cells; host or cells: CHO (M1-CHO)
# Sequence (P11229 1-460): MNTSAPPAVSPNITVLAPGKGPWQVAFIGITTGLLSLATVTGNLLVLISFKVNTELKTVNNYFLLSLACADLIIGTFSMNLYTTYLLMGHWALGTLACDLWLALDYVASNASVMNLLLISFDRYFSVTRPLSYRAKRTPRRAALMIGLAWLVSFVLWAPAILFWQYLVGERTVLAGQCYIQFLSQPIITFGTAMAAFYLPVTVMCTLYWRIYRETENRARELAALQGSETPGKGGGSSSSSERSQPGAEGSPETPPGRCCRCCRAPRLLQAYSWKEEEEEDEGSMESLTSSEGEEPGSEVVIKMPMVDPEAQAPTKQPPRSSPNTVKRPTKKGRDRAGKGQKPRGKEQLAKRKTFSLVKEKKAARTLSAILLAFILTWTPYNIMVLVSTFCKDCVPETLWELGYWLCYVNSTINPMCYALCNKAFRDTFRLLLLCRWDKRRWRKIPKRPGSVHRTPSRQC
# Procedure Details: Functional mobilization of intracellular calcium (FLIPR), M1-CHO cells
# Type: cell-based
# Condition Summary: 100% efficacy is the maximum response obtained with the Carbachol control
Quantity: Emax

Cc1cnc(N2CCC(N3CCC4(CC3)CN(C(=O)N(C)C)c3ccccc34)CC2)s1 [compound 116] | < 25%
CCOC(=O)N1C2CCC1CC(N1CCC3(CC1)CN(C(=O)N(C)C)c1ccccc13)C2 (stereo not shown) [compound 46] | 25 to 100%
CN(C)C(=O)N1CC2(CCN(C3CC4CCC(C3)N4c3cnccn3)CC2)c2ccccc21 (stereo not shown) [Compound No. 103] | 25 to 100%
CN(C)C(=O)N1CC2(CCN(C3CCCN(C(=O)OCC(F)F)CC3)CC2)c2ccccc21 (stereo not shown) [compound 71] | 25 to 100%
CCOC(=O)N1CCC(N2CCC3(CCN(C(C)=O)c4ccccc43)CC2)CC1 [Compound No. 11] | > 100%
CC#CCOC(=O)N1CCC(N2CCC3(CCN(C(C)=O)c4ccccc43)CC2)CC1 [compound 13] | 25 to 100%
Cc1nsc(N2CCC(N3CCC4(CC3)CN(C(=O)N(C)C)c3ccccc34)CC2)n1 [compound 53] | 25 to 100%
CN(C)C(=O)N1CC2(CCN(C3CCCN(C(=O)O[C@@H]4CCOC4)CC3)CC2)c2ccccc21 (stereo partly shown) [compound 73] | < 25%
C=Cc1cncc(N2CCC(N3CCC4(CC3)CN(C(=O)N(C)C)c3ccccc34)CC2)n1 [compound 114] | < 25%
COC(=O)N1C2CCC1CC(N1CCC3(CC1)CN(C(=O)N(C)C)c1ccccc13)C2 (stereo not shown) [compound 45] | 25 to 100%

###

// Emax lookup, one value per entry
# Assay System: M4 muscarinic receptor (Homo sapiens, UniProt P08173)
# Construct: expressed in transfected cells; host or cells: CHO (M4-CHO)
# Sequence (P08173 1-479): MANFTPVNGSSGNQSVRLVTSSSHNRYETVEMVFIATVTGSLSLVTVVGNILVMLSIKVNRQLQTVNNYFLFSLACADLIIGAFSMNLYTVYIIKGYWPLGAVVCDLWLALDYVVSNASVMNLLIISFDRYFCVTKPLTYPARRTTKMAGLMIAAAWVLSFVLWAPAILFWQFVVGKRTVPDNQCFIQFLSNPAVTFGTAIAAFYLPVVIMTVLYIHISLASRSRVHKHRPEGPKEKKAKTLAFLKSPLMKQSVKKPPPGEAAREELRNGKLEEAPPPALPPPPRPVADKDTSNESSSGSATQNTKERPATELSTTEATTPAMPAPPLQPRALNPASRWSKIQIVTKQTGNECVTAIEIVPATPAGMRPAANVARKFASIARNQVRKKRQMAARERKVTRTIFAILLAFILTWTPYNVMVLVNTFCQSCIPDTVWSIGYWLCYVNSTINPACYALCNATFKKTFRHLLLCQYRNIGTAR
# Procedure Details: Functional mobilization of intracellular calcium (FLIPR), M4-CHO cells
# Format: cell-based
# Condition Summary: 100% efficacy is the maximum response obtained with the Carbachol control
Quantity: Emax

COC(=O)N1CCCC(N2CCC3(CC2)CN(C(=O)N(C)C)c2ccccc23)CCC1 | > 100%
CN(C)C(=O)N1CC2(CCN(C3CCN(c4ncns4)CC3)CC2)c2ccccc21 | 25 to 100%
Cc1csc(N2CCC(N3CCC4(CCN(C(=O)N(C)C)c5ccccc54)CC3)CC2)n1 | 25 to 100%
CC(=O)N1CCC2(CCN(C3CCNCC3)CC2)c2ccccc21 | < 25%
CCc1nsc(N2CCC(N3CCC4(CCN(C(C)=O)c5ccccc54)CC3)CC2)n1 | 25 to 100%
Cc1cncc(N2CCC(N3CCC4(CC3)CN(C(=O)N(C)C)c3ccccc34)CC2)n1 | 25 to 100%
C#CCCOC(=O)N1C2CCC1CC(N1CCC3(CC1)CN(C(=O)N(C)C)c1ccccc13)C2 (centres unmarked) | 25 to 100%
CCOC(=O)N1CCCC(N2CCC3(CC2)CN(C(=O)N(C)C)c2ccccc23)CCC1 | > 100%
CC(=O)N1CCC2(CCN(C3CCN(c4nccs4)CC3)CC2)c2ccccc21 | < 25%
C#CCOC(=O)N1CC[C@H](CN2CCC3(CC2)CN(C(=O)N(C)C)c2ccccc23)C1 | 25 to 100%
CN(C)C(=O)N1CC2(CCN(C3CCN(c4nccs4)CC3)CC2)c2ccccc21 | 25 to 100%
Cc1ncc(N2CC[C@H](CN3CCC4(CC3)CN(C(=O)N(C)C)c3ccccc34)C2)nc1C | 25 to 100%
CCOC(=O)N1CCC(C)(N2CCC3(CC2)CN(C(=O)N(C)C)c2ccccc23)CC1 | 25 to 100%
CC(C)OC(=O)N1CC[C@H](CN2CCC3(CC2)CN(C(=O)N(C)C)c2ccccc23)C1 | 25 to 100%
